Assay: in vitro
Type: cell-based
Details: human
Catalogue of IC50 at 48 h readings, one per entry.
assay.readout: IC50 at 48 h (µg/mL)

[[record]]
molecule = "COc1ccc2c3c([nH]c2c1)C(C)=NCC3 [compound 6, harmaline]"
unit_info = "µg/mL"
sign_qualifier = "="
value = 25

[[record]]
molecule = "COc1ccc2c(c1)[nH]c1c(C)nccc12 [compound 7, harmine]"
unit_info = "µg/mL"
sign_qualifier = ">"
value = 31.2

[[record]]
molecule = "Oc1cc(O)c2c(c1)O[C@H](c1ccc(O)c(O)c1)[C@H](O)C2 [compound 8, (−)-2R,3R–Epicatechin]"
unit_info = "µg/mL"
sign_qualifier = "="
value = 6.3


---

Molecular target: recombinant human Monoamine Oxidase A (MAO-A) (Homo sapiens)
Experiment: kynuramine deamination assay, recombinant human MAO-A
Format: biochemical
We begin with a simple list: items and their reported IC50.
assay.readout: IC50

[[record]]
compound = "Cc1[nH]ccc2c1[nH]c1cc(=O)ccc12 [compound 3, harmol]"
value = "0.018 µM"

[[record]]
compound = "Oc1cc(O)c2c(c1)O[C@H](c1ccc(O)c(O)c1)[C@H](O)C2 [compound 8, (−)-2R,3R–Epicatechin]"
value = "51.7 µM"


---

System: ROS generation in Myelomonocytic HL-60 cells
Assay: cell based antioxidant assay, inhibition of PMA-induced ROS generation
Details: Homo sapiens, HL-60, read-out: Antioxidant IC50
assay.readout: IC50

[[record]]
molecule = "COc1ccc2c3c([nH]c2c1)C(C)=NCC3"
system_name = "ROS generation in Myelomonocytic HL-60 cells"
value = "> 31.2 µg/mL"

[[record]]
molecule = "Cc1c(C)c2c(c(C)c1O)CCC(C)(C(=O)O)O2 (stereo not shown) [trolox, reference compound]"
system_name = "ROS generation in Myelomonocytic HL-60 cells"
value = "0.14 µg/mL"

[[record]]
molecule = "Oc1cc(O)c2c(c1)O[C@H](c1ccc(O)c(O)c1)[C@H](O)C2 [compound 8, (−)-2R,3R–Epicatechin]"
system_name = "ROS generation in Myelomonocytic HL-60 cells"
value = "< 0.13 µg/mL"

[[record]]
molecule = "COc1ccc2c(c1)[nH]c1c(C)nccc12"
system_name = "ROS generation in Myelomonocytic HL-60 cells"
value = "> 31.2 µg/mL"


---

Molecular target: recombinant human Monoamine Oxidase A (MAO-A) (Homo sapiens, UniProt P21397)
Sequence (P21397 whole entry): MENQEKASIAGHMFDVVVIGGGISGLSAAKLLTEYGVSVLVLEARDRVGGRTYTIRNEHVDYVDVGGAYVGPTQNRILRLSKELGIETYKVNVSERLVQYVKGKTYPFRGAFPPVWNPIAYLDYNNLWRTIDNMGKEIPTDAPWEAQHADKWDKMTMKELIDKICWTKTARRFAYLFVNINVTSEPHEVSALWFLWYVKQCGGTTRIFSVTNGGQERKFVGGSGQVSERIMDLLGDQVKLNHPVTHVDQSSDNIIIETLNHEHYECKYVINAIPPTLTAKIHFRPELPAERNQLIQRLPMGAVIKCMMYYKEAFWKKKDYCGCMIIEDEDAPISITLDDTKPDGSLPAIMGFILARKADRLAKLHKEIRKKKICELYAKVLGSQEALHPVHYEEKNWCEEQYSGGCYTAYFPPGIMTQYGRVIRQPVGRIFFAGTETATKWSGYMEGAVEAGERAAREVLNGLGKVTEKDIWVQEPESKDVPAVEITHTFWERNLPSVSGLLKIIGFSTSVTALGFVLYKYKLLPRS
Assay: kynuramine deamination assay, recombinant human MAO-A
Type: biochemical
Settings: read-out: MAO-A IC50; pure compounds and standards
pIC50: −log10 of the molar value.
The following compounds are listed with their measured pIC50 values.
assay.readout: pIC50

[[record]]
compound = "COc1ccc2c3c([nH]c2c1)[C@@H](C)NCC3 [compound 5, tetrahydroharmine]"
value = 7.13

[[record]]
compound = "Oc1cc(O)c2c(c1)O[C@H](c1ccc(O)c(O)c1)[C@H](O)[C@H]2c1c(O)cc(O)c2c1O[C@H](c1ccc(O)c(O)c1)[C@H](O)C2"
value = 5.07


---

The entries below come with measured pIC50 values attached.
Target: recombinant human Monoamine Oxidase B (MAO-B) (Homo sapiens, UniProt P27338)
Sequence (P27338 whole entry): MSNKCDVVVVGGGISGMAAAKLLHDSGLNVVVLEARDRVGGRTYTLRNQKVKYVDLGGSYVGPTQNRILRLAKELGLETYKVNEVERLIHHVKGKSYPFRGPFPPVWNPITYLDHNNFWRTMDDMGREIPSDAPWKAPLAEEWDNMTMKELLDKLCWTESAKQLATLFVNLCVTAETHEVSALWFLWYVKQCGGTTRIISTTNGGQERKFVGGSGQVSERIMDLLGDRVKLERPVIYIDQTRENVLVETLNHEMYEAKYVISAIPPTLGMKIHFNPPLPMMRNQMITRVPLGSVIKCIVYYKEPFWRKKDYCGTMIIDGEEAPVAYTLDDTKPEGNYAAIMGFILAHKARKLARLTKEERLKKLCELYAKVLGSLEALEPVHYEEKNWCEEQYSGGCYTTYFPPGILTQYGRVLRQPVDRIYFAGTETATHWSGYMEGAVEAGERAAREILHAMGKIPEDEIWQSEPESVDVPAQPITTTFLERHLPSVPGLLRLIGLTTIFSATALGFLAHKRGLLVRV
Assay: biochemical
Format: biochemical
pIC50: −log10 of the molar value.
assay.readout: pIC50

[[record]]
molecule = "COc1ccc2c3c([nH]c2c1)C(C)=NCC3"
assay_readout = "pIC50"
value = 4.60

[[record]]
molecule = "Oc1cc(O)c2c(c1)O[C@H](c1ccc(O)c(O)c1)[C@H](O)C2 [compound 8, (−)-2R,3R–Epicatechin]"
assay_readout = "pIC50"
value = 4.19

[[record]]
molecule = "COc1ccc2c(c1)[nH]c1c(C)nccc12"
assay_readout = "pIC50"
value = 4.70

